- Experimental Target: T1, JCV T-antigen origin-binding domain (OBD) (JC virus (JCV), UniProt P03072 132-261)
- T1 sequence: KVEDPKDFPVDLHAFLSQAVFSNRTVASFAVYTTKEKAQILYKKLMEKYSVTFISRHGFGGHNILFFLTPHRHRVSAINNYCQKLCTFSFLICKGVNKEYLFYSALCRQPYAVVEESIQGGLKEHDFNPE
- Test Details: ITC; average of four titrations; titration shown in Fig. 4A ~278 nM; N = 4 OBDs per duplex; ITC (VP-ITC): 10 mM sodium phosphate pH 7.0, 50 mM NaCl; temperature not stated; OBD in syringe (~80 uM for Site II, 40 uM for Site I), DNA 1.5 uM / 1.0 uM
- Settings: protein: recombinant; tags: N-terminal GST removed by thrombin; chain copies: 4; blunt
pKd: −log10 of the molar value.
Outcome Measure: pKd

Binder: JCV Site II 33 bp (dsDNA) DNA 1: TACAGGAGGCCGAGGCCGCCTCCGCCTCCAAGC DNA 2: GCTTGGAGGCGGAGGCGGCCTCGGCCTCCTGTA
Outcome Measure: pKd
Result: 6.52
